Molecular target: Capsid scaffolding protein (Human cytomegalovirus (strain AD169) (HHV-5) (Human herpesvirus 5))
Sequence (P16753 whole entry): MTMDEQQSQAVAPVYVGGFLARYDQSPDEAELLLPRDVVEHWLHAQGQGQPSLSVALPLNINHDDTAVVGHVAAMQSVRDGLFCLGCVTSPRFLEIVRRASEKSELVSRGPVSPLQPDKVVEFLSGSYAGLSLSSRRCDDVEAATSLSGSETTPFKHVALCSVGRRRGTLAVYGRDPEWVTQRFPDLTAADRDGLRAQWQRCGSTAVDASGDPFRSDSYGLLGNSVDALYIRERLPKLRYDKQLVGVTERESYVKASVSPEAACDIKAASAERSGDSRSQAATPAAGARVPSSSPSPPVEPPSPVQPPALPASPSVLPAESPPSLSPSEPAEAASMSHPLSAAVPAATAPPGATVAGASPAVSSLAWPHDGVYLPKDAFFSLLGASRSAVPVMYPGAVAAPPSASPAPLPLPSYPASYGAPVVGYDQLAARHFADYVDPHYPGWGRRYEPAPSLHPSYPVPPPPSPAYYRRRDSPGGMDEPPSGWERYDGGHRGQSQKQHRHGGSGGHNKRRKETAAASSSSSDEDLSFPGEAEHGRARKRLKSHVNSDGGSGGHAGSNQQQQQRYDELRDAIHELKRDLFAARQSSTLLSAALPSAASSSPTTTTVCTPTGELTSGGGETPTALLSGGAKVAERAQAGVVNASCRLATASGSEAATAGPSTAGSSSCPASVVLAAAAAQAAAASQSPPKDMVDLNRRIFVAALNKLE
Assay: Inhibition of human cytomegalovirus protease in HCMV pNA assay.
pIC50: −log10 of the molar value.
Would you mind labelling by pIC50? At or over 6 is Criterion met, under is Criterion not met.

CC(C)c1ccc(NC(=O)N2CCC[C@H]2C(=O)N2CC[C@H]3[C@H]2[C@H](C)C(=O)N3c2ccc([N+](=O)[O-])cc2)cc1: Criterion not met
CCCOc1ccc(C(=O)N2CCC[C@H]2C(=O)N2CC[C@H]3[C@H]2[C@H](C)C(=O)N3C(=O)C2CC2)cc1: Criterion met
CC(C)c1ccc(S(=O)(=O)N2CCC[C@H]2C(=O)N2CC[C@H]3[C@H]2[C@H](C)C(=O)N3C(=O)C2CC2)cc1: Criterion met
COc1cccc2sc(N3C(=O)[C@@H](C)[C@@H]4[C@@H]3CCN4C(=O)[C@@H]3CCCN3C(=O)Nc3ccc(C(C)C)cc3)nc12: Criterion met

Shifting focus to the molecule that follows.
Check this molecule for pIC50 at or above 6: CC(C)c1ccc(NC(=O)N2CCC[C@H]2C(=O)N2CC[C@H]3[C@H]2[C@H](C)C(=O)N3c2nc3cc(S(=O)(=O)C(F)F)ccc3s2)cc1
Criterion met

---

We begin with a simple list: items and their reported IC50.
target: Capsid scaffolding protein (Human cytomegalovirus (strain AD169) (HHV-5) (Human herpesvirus 5)); experiment: Inhibition of human cytomegalovirus protease in HCMV pNA assay.
Field: value (include unit after the number)

Use these answered entries as a reference point.
CC(C)c1ccc(NC(=O)N2CCC[C@H]2C(=O)N2CC[C@H]3[C@H]2[C@H](C)C(=O)N3C(=O)[C@@H]2[C@H](C)[C@@H]2C)cc1: 300 nM
CCCOc1ccc(S(=O)(=O)N2CCC[C@H]2C(=O)N2CC[C@H]3[C@H]2[C@H](C)C(=O)N3C(=O)C2CC2)cc1: 230 nM
C[C@@H]1C(=O)N(C(=O)C2CC2)[C@H]2CCN(C(=O)[C@@H]3CCCN3S(=O)(=O)c3ccc(Cl)cc3)[C@H]12: 840 nM
C[C@@H]1C(=O)N(C(=O)C2CC2)[C@H]2CCN(C(=O)[C@@H]3CCCN3C(=O)Nc3ccc(Cl)cc3)[C@H]12: 260 nM

Alright, here's another compound for you.
// IC50 lookup, key: CC(C)c1ccc(NC(=O)N2CCC[C@H]2C(=O)N2CC[C@H]3[C@H]2[C@H](C)C(=O)N3C(=O)C2[C@@H](C)[C@H]2C)cc1 (stereo not given in full)
1800 nM

---

assay: C max in dog; format: ADME, organism-based, Canis lupus familiaris; settings: in vivo
measurement.type: Cmax (ng/mL)
Return type: number; implicit unit ng/mL.

Field request: Cmax | item: CC(C)c1ccc(NC(=O)N2CCC[C@H]2C(=O)N2CC[C@H]3[C@H]2[C@H](C)C(=O)N3c2nc3ccccc3s2)cc1
5480

---

Molecular target: Capsid scaffolding protein (Human cytomegalovirus (strain AD169) (HHV-5) (Human herpesvirus 5), UniProt P16753)
Sequence (P16753 whole entry): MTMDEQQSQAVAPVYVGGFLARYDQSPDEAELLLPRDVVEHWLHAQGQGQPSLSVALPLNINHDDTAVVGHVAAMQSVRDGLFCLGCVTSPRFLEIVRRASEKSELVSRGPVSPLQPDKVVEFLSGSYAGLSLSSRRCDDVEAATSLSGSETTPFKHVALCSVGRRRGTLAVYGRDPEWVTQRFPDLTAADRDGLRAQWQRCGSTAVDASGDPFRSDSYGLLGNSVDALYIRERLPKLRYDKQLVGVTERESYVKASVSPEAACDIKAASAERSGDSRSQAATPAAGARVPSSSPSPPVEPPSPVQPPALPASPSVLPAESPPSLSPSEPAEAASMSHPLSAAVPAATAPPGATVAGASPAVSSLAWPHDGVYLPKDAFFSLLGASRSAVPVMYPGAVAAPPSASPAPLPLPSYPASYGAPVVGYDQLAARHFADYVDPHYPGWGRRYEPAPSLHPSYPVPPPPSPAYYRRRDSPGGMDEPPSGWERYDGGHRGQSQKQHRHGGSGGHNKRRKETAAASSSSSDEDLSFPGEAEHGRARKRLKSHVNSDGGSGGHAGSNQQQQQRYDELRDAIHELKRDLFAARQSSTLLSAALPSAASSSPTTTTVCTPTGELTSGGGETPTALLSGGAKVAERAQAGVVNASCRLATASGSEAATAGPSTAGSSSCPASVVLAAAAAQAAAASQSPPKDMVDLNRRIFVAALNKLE
Test: Potency against human cytomegalovirus protease in HCMV pNA assay
measurement.type: pKi
The value called pKi is obtained by taking minus log10 of the concentration in mol/L.

The examples below pair each entry with its known result.
CC(C)c1ccc(NC(=O)N2CCC[C@H]2C(=O)N2CC[C@H]3[C@H]2[C@H](C)C(=O)N3c2nc3cccnc3s2)cc1: 7.68
CCCOc1ccc(-c2ccc(NC(=O)N3CCC[C@H]3C(=O)N3CC[C@H]4[C@H]3[C@H](C)C(=O)N4C(=O)C3CC3)cc2)cc1: 8.05

Entry CCCOc1ccc(-c2ccc(S(=O)(=O)N3CCC[C@H]3C(=O)N3CC[C@H]4[C@H]3[C@H](C)C(=O)N4C(=O)C3CC3)cc2)cc1 has what pKi?
7.48

Entry CCCOc1ccc(NC(=O)N2CCC[C@H]2C(=O)N2CC[C@H]3[C@H]2[C@H](C)C(=O)N3C(=O)C2CC2)cc1 please
8.05

---

target: UniProt:P00734; experiment: Concentration of compound required to inhibit thrombin
pIC50: −log10 of the molar value.
measurement.type: pIC50

Need pIC50 of CC(C)c1ccc(NC(=O)N2CCC[C@H]2C(=O)N2CC[C@H]3[C@H]2[C@H](C)C(=O)N3C(=O)[C@@H]2[C@H](C)[C@@H]2C)cc1 , thanks.
< 3.70

---

Biological target: Capsid scaffolding protein (Human cytomegalovirus (strain AD169) (HHV-5) (Human herpesvirus 5))
Sequence (P16753 whole entry): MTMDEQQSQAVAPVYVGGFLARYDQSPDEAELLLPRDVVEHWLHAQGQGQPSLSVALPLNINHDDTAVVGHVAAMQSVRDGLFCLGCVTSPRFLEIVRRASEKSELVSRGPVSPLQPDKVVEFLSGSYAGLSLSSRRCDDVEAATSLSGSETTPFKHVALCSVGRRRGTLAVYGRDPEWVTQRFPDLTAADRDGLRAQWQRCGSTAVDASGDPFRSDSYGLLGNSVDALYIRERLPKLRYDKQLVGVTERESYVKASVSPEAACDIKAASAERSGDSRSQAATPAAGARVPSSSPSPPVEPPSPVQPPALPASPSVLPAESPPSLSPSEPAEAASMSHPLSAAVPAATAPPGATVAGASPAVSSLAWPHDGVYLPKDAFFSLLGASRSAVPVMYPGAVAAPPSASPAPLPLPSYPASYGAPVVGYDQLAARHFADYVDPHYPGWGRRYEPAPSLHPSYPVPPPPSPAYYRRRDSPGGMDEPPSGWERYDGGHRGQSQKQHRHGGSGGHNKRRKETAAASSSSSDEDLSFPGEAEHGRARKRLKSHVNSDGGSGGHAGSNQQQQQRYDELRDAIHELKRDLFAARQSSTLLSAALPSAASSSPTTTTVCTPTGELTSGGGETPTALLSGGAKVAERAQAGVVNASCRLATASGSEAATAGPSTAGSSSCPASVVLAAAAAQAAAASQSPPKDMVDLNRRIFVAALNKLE
Assay: Inhibition of human cytomegalovirus protease in HCMV pNA assay.
pIC50 values for the compounds below.
The read-out pIC50 is expressed as -log10 of concentration in moles per litre.

Some solved cases for reference:
CC(C)Oc1ccc(NC(=O)N2CCC[C@H]2C(=O)N2CC[C@H]3[C@H]2[C@H](C)C(=O)N3C(=O)C2CC2)cc1: 6.74
CC(C)c1ccc(NC(=O)N2CCC[C@H]2C(=O)N2CC[C@H]3[C@H]2[C@H](C)C(=O)N3c2nc3ccc([N+](=O)[O-])cc3s2)cc1: 6.41

Here's the next entry for you.
Please look up its pIC50: COc1ccc2sc(N3C(=O)[C@@H](C)[C@@H]4[C@@H]3CCN4C(=O)[C@@H]3CCCN3C(=O)Nc3ccc(C(C)C)cc3)nc2c1
6.64
